Source of measurements: the supplement of paper PMC7156485

cell number values, listed per item
tested on: HCC1569; test: cell number relative to DMSO (% of DMSO); higher = more cells (less growth inhibition / toxicity); details: concentration: 10 µM; 24 h;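 further: TDF denotes transformed human dermal fibroblasts of mesenchymal origin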

| Compound | Study System | cell number |
| --- | --- | --- |
| CCCCCCCCCCCCCCC(=O)O [Pentadecanoic acid] | HCC1569 | 99 |
| CCc1nn(CCCN2CCN(c3cccc(Cl)c3)CC2)c(=O)n1CCOc1ccccc1 | HCC1569 | 92.2 |
| Nc1ccc(O)c(C(=O)O)c1 [5-Aminosalicylic acid] | HCC1569 | 107 |
| O=C(O)/C=C/c1ccc(O)c(O)c1 [Caffeic acid] | HCC1569 | 98.5 |
| CCOc1ccc(C(Nc2ccccn2)c2ccc3ccc(C)nc3c2O)cc1C (stereo not drawn) | HCC1569 | 87.7 |
| Cl.c1ccc(C2CN3CCSC3=N2)cc1 (single isomer, unassigned; (-)) [(-)-Tetramisole hydrochloride] | HCC1569 | 108 |
| COc1cc(C(=O)OC2CC3CCC2(C)C3(C)C)ccc1O (stereo not drawn) [Tschimganine] | HCC1569 | 101 |
| COc1cc2ncc(-c3ccccc3)nc2cc1OC | HCC1569 | 100 |
| COC(=O)C1=C(C)NC(C)=C(C(=O)OC)C1c1ccccc1[N+](=O)[O-] [Nifedipine] | HCC1569 | 99.1 |
| O=c1c(-c2ccc(O)cc2)coc2cc(O)cc(O)c12 | HCC1569 | 97.6 |
| Cl.NC(N)=NC(=O)Cc1c(Cl)cccc1Cl [Guanfacine.HCl] | HCC1569 | 101 |
| COC1=CC(=O)CC(C)C12Oc1c(Cl)c(OC)cc(OC)c1C2=O (single isomer, unassigned; (+)) [(+)-Griseofulvin] | HCC1569 | 100 |
| C=CCn1c(=O)c2c(nc(-c3ccc(S(=O)(=O)O)cc3)n2C)n(C)c1=O [1-Allyl-3,7-dimethyl-8-p-sulfophenylxanthine] | HCC1569 | 102 |
| COC(=O)C(Cc1ccc(OCCn2c(=O)sc3cc(C(=O)c4ccccc4)ccc32)cc1)C(=O)OC | HCC1569 | 102 |
| CC(=O)NC(C(=O)O)C(C)(C)SN=O (stereo not drawn) [S-Nitroso-N-acetylpenicillamine] | HCC1569 | 105 |
| C[N+](C)(C)CCOC(N)=O.[Cl-] [Carbachol] | HCC1569 | 105 |
| Cc1ccccc1C=CC1=NCCN1.O=C(O)C(=O)O [Metrazoline oxalate] | HCC1569 | 96.3 |
| NC(=O)c1nnn(Cc2cc(Cl)c(C(=O)c3ccc(Cl)cc3)c(Cl)c2)c1N | HCC1569 | 75 |
